tested.on: human Nav1.8 (Homo sapiens (Human), UniProt Q9Y5Y9)
Sequence (Q9Y5Y9 whole entry): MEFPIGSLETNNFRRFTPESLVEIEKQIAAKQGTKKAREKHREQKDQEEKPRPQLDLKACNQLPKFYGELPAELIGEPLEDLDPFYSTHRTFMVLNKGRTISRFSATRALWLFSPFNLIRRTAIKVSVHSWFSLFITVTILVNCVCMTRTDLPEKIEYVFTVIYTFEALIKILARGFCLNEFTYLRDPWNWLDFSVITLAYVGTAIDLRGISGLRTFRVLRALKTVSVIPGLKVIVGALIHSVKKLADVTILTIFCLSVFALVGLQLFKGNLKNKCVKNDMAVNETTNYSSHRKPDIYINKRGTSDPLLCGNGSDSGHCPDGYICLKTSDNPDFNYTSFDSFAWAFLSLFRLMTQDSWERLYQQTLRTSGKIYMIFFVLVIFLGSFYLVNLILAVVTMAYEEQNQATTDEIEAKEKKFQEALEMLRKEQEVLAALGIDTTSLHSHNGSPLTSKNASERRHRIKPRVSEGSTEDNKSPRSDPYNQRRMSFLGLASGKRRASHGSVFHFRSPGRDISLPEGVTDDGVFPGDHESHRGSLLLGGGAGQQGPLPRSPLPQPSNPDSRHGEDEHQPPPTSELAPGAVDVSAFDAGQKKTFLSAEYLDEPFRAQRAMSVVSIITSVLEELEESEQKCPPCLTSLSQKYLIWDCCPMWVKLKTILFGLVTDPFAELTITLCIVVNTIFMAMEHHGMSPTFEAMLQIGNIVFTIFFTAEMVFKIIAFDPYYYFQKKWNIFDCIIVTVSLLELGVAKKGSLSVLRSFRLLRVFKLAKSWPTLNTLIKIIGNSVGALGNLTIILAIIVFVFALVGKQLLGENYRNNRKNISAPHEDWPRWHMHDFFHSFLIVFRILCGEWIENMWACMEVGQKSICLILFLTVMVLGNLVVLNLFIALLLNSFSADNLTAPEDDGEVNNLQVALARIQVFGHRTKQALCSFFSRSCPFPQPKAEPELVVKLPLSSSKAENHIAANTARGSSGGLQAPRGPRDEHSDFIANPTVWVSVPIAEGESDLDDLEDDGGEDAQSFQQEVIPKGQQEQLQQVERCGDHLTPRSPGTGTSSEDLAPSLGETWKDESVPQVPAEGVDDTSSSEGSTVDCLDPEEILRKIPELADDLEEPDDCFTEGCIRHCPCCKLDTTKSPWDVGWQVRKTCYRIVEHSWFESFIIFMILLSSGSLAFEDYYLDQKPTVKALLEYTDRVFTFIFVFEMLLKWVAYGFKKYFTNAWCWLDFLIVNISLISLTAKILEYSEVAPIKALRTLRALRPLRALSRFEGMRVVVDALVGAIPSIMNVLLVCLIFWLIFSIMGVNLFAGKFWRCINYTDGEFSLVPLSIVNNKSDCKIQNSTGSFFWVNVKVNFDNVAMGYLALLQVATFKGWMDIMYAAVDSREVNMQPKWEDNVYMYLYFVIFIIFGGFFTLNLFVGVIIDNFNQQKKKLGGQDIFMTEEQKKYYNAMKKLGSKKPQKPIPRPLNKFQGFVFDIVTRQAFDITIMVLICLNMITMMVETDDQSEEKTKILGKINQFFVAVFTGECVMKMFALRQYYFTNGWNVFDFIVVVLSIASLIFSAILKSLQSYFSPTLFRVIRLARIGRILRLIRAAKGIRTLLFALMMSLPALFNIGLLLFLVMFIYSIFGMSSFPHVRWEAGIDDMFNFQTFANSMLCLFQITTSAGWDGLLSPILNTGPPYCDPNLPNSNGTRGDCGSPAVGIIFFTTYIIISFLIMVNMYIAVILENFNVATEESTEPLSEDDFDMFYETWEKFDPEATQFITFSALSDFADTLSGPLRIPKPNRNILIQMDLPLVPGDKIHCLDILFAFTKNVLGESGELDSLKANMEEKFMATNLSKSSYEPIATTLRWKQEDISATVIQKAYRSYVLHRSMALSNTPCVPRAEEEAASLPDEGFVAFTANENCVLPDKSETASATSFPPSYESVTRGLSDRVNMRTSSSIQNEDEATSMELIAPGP
Sequence (Q07699 19-218 partner): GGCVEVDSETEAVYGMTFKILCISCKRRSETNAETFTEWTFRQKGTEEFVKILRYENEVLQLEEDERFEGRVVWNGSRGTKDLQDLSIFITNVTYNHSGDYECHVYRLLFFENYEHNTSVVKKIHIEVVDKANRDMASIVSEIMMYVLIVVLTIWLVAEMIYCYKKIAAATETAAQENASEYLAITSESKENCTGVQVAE
measurement.protocol: QPatch 48 HTX voltage-clamp electrophysiology, half inactivation state (V1/2) protocol, HEK293-Nav1.8 cells
Format: cell-based
test.parameters: HEK293 cells expressing human Nav1.8, human Navβ1 and human TREK1, P2 current
Method: Human embryonic kidney 293 cells (HEK293) expressing human Nav1.8, human Navβ1 and human TREK1 (HEK293-Nav1.8) were grown in T150 cell culture flasks at 37° C., 5% CO2 incubator. HEK293-Nav1.8 were passaged every 2-3 days when confluency reached 80-90% in T150 cell culture flasks. […] To assess current run-down over the course of the experiment vehicle-only wells were utilized and the normalized current with vehicle-only (n.IVEH) was determined. […]
quantity.kind: Nav1.8, pIC50

**Q:** What measured Nav1.8, pIC50 is associated with "Cl.N#Cc1cc2c(cc1Cl)C(=O)N1CN2c2ccc(F)cc2CCCNc2[nH]c(=O)ccc21" on human Nav1.8 (Homo sapiens (Human), UniProt Q9Y5Y9)?
**A:** 7.5

**Q:** GET /values?readout=Nav1.8, pIC50&system=human Nav1.8 (Homo sapiens (Human), UniProt Q9Y5Y9)&item= "N#Cc1cc2c(cc1F)C(=O)N1CN2c2ccc(F)cc2CCCNc2[nH]c(=O)ccc21"
**A:** 7.5

**Q:** Find the measured Nav1.8, pIC50: item "Cl.O=C1c2cc(F)c(C(F)(F)F)cc2N2CN1c1ccc(=O)[nH]c1CCCNCc1cc(F)ccc12" , target or system human Nav1.8 (Homo sapiens (Human), UniProt Q9Y5Y9).
**A:** 7.3

**Q:** Param readout = Nav1.8, pIC50; param system = human Nav1.8 (Homo sapiens (Human), UniProt Q9Y5Y9); param query = CC1CCc2c(ccc(F)c2F)N2CN(C(=O)c3cc(F)c(C(F)(F)F)cc32)c2ccc(=O)[nH]c2N1 (stereo not shown) ; response: value
**A:** 6.8

**Q:** Please tell me: Nav1.8, pIC50 of "N#Cc1c(F)ccc2c1CNCCc1[nH]c(=O)ccc1N1CN2c2cc(F)c(F)cc2C1=O" , system human Nav1.8 (Homo sapiens (Human), UniProt Q9Y5Y9)?
**A:** 6.8

**Q:** Quick check: Nav1.8, pIC50 on human Nav1.8 (Homo sapiens (Human), UniProt Q9Y5Y9), item "O=C1c2cc(C(F)(F)F)ccc2N2CN1c1ccc(=O)[nH]c1NCCCc1cc(F)c(F)cc12" ?
**A:** 7.0

**Q:** For human Nav1.8 (Homo sapiens (Human), UniProt Q9Y5Y9), provide Nav1.8, pIC50 of "Cl.O=C1c2cc(F)c(F)cc2N2CN1c1ccc(=O)[nH]c1CCNCc1cc(OC(F)(F)F)ccc12" please.
**A:** 7.5

###

tested.on: human Nav1.8 (Homo sapiens (Human), UniProt Q9Y5Y9)
measurement.protocol: QPatch 48 HTX voltage-clamp electrophysiology, half inactivation state (V1/2) protocol, HEK293-Nav1.8 cells
Type: cell-based
test.parameters: HEK293 cells expressing human Nav1.8, human Navβ1 and human TREK1, P2 current
Procedure: Human embryonic kidney 293 cells (HEK293) expressing human Nav1.8, human Navβ1 and human TREK1 (HEK293-Nav1.8) were grown in T150 cell culture flasks at 37° C., 5% CO2 incubator. HEK293-Nav1.8 were passaged every 2-3 days when confluency reached 80-90% in T150 cell culture flasks. […] To assess current run-down over the course of the experiment vehicle-only wells were utilized and the normalized current with vehicle-only (n.IVEH) was determined. […]
Counter-ions that a name gives are not always drawn.
quantity.kind: Nav1.8, pIC50
Keep it simple and answer with nothing but the number.

**Q:** Which Nav1.8, pIC50 is listed for CC1NCCc2[nH]c(=O)ccc2N2CN(c3cc(Cl)c(F)cc3C2=O)c2ccc(F)cc21 (racemic) [Example 120, hydrochloride] ?
**A:** 7

**Q:** Please look up its Nav1.8, pIC50: "N#Cc1cc2c(cc1F)C(=O)N1CN2c2ccc(F)c(F)c2CCCNc2[nH]c(=O)ccc21"
**A:** 7.7

**Q:** Consider the molecule shown here: "O=C1c2cc(C(F)(F)F)ccc2N2CN1c1ccc(=O)[nH]c1CCCc1cc(F)ccc12" What is its recorded Nav1.8, pIC50?
**A:** 6.0

**Q:** Fill in: Nav1.8, pIC50 of "Cc1c(F)ccc2c1CNCCc1[nH]c(=O)ccc1N1CN2c2cc(C#N)c(F)cc2C1=O.Cl" is ___
**A:** 7.6

**Q:** Give its Nav1.8, pIC50 value. Item: "O=C1c2cc(C(F)(F)F)cnc2N2CN1c1ccc(=O)[nH]c1CC/C=C\Cc1cc(F)ccc12"
**A:** 7.7

**Q:** Recorded Nav1.8, pIC50 of "O=C1c2cc(C(F)(F)F)ccc2N2CN1c1ccc(=O)[nH]c1CNCCc1cc(F)ccc12" , please.
**A:** 6.4

**Q:** Please give the measured Nav1.8, pIC50 for this molecule: "Cl.O=C1c2cc(F)c(F)cc2N2CN1c1ccc(=O)[nH]c1CCNCc1c2ccc(F)c1Cl"
**A:** 8.2

**Q:** Look at this molecule and give its reported Nav1.8, pIC50. "O=C1c2cc(F)c(Cl)cc2N2CN1c1ccc(=O)[nH]c1NCCCc1cc(F)ccc12"
**A:** 8.1

**Q:** Which Nav1.8, pIC50 value belongs to "O=C1c2cc(F)c(C(F)(F)F)cc2N2CN1c1ccc(=O)[nH]c1CCNCc1cc(F)ccc12" ?
**A:** 8.6

**Q:** If you can, please state the reported Nav1.8, pIC50 value of "Cl.N#Cc1cc2c(cc1F)C(=O)N1CN2c2ccc(OC(F)(F)F)c(F)c2CNCCc2[nH]c(=O)ccc21" .
**A:** 8.1

**Q:** Could you share which Nav1.8, pIC50 value was measured for "Cl.N#Cc1c(F)ccc2c1CNCCc1[nH]c(=O)ccc1N1CN2c2cc(C(F)(F)F)c(F)cc2C1=O" ?
**A:** 7.9

**Q:** Reported Nav1.8, pIC50 for "O=C1c2cc(C(F)(F)F)cnc2N2CN1c1ccc(=O)[nH]c1NCCCc1cc(F)ccc12" : what is it?
**A:** 6.4

**Q:** Consider the molecule shown here: "CN1CCCCc2cc(F)ccc2N2CN(C(=O)c3ccc(C(F)(F)F)cc32)c2ccc(=O)[nH]c21" What is its recorded Nav1.8, pIC50?
**A:** 7.3

**Q:** For the molecule "O=C1c2cc(Cl)cnc2N2CN1c1ccc(=O)[nH]c1CCNCc1cc(F)ccc12" , what Nav1.8, pIC50 is on record?
**A:** 6.9

**Q:** Could you share which Nav1.8, pIC50 value was measured for "Cl.O=C1c2cc(C(F)(F)F)ccc2N2CN1c1ccc(=O)[nH]c1CCNCc1ccccc12" ?
**A:** 6.7

**Q:** # Nav1.8, pIC50 lookup, item "O=C1c2cc(Cl)cnc2N2CN1c1ccc(=O)[nH]c1CCCCCc1cc(F)ccc12"
**A:** 7.2
